- Tested on: PfAP2-EXP AP2 domain (GST-tagged)
- measurement-description: gcPBM binding intensity (ln(normalized median fluorescence intensity)); higher = stronger DNA binding
The full ranking holds about 25,000 sequences; the median of “ln(normalized median fluorescence intensity)” is about 8.6, and the highest 2% start at about 10. Shown is part of a subset that was picked to be rich in the highest values.
List of gcPBM binding intensity (ln) values.
measurement-label: gcPBM binding intensity (ln)

INSERT INTO assay_data (biopolymer_sequence, reported_measurement) VALUES
  ('ACCATACATACATACACACACACACCCATATATATA [CACACA_site2917]', 8.94),
  ('GGGAGGATATTACACAGTACCCAGAAAATCTACGGA [XGTACX_site2551]', 8.8),
  ('TGTATAATATTTGGTGCACACAAATTAACAACTGTT [CACACA_site9245]', 9.21),
  ('TATATATATAAATACACACACACACCCCAAAGCGTA [CACACA_site4211]', 9.18);

---

- Test system: PfAP2-EXP AP2 domain (GST-tagged)
- measurement-description: gcPBM binding intensity (ln(normalized median fluorescence intensity)); higher = stronger DNA binding
In all, about 25,000 sequences were measured (“ln(normalized median fluorescence intensity)”: median about 8.6, highest 2% from about 10 on). Many of the other results were omitted from the sample, so the highest values are more common in it than they were.
The following sequences are shown together with reported gcPBM binding intensity (ln) values.
measurement-label: gcPBM binding intensity (ln)

INSERT INTO assay_data (biopolymer_sequence, measurement_label, reported_measurement) VALUES
  ('TTTTCATTTTTCTTTACACACATATATTTATTTATA [CACACA_site7119]', 'gcPBM binding intensity (ln)', 8.94),
  ('ATTTTATTTTCATATGAACACACATATATATATTAT [CACACA_site8741]', 'gcPBM binding intensity (ln)', 9.15),
  ('AAGAAAAGCAAACAAGTGCATAATAACAAAAAAAAT [GTGCAC_site9725]', 'gcPBM binding intensity (ln)', 9.13);

---

Below: a set of entries, each annotated with reported gcPBM binding intensity (ln).
- System: PfAP2-EXP AP2 domain (GST-tagged)
- measurement-description: gcPBM binding intensity (ln(normalized median fluorescence intensity)); higher = stronger DNA binding
Over roughly 25,000 sequences, “ln(normalized median fluorescence intensity)” has its median near 8.6; the highest 2% begin near 10. What follows is part of a selection rich in the highest values, with near analogues and random picks from the rest.
measurement-label: gcPBM binding intensity (ln)

INSERT INTO measurements (biopolymer_sequence, measurement_label, reported_measurement) VALUES
  ('TGAATAAATCAAAGCACACATACACCCACATATATA [CACACA_site286]', 'gcPBM binding intensity (ln)', 8.78),
  ('GTAGTAATAAATCTAGTGCATTATATATAACAAAAA [GTGCAC_site9803]', 'gcPBM binding intensity (ln)', 8.81),
  ('CACATATATACACATACACACACACCCATACACCCA [CACACA_site8505]', 'gcPBM binding intensity (ln)', 8.77),
  ('AGGCACGTGTTATATACACACATAATCAAATAAACT [CACACA_site7852]', 'gcPBM binding intensity (ln)', 8.76),
  ('CATATACATACACATACACACATACACCCATACACA [CACACA_site8514]', 'gcPBM binding intensity (ln)', 8.77),
  ('TAATACCATAACAAGTGTACATAAATAATTATTGTA [XGTACX_site4949]', 'gcPBM binding intensity (ln)', 8.8),
  ('TTGATTAAAATTAGTACACACAAAATACATGCGGGG [CACACA_site5284]', 'gcPBM binding intensity (ln)', 9.2);

---

- System: PfAP2-EXP AP2 domain (GST-tagged)
- measurement-description: gcPBM binding intensity (ln(normalized median fluorescence intensity)); higher = stronger DNA binding
Over roughly 25,000 sequences, “ln(normalized median fluorescence intensity)” has its median near 8.6; the highest 2% begin near 10. The full list was thinned out, with the highest values kept by preference.
measurement-label: gcPBM binding intensity (ln)

INSERT INTO assay_data (biopolymer_sequence, tested_target, reported_measurement) VALUES
  ('AAGTTTTTTTCTTTTTTTCTCTCTTTTTTTTTTTTT [XGTACX_negctrl_site613]', 'PfAP2-EXP AP2 domain (GST-tagged)', 8.19),
  ('ATTTCTTCTTTTTTTGTGAAACTGGAATATATATAT [XGTACX_negctrl_site527]', 'PfAP2-EXP AP2 domain (GST-tagged)', 9.17),
  ('TTTATTATCTTATTCACACACATATATATATATATA [CACACA_site2869]', 'PfAP2-EXP AP2 domain (GST-tagged)', 10.2),
  ('AAAAATATATAAAGAAAAAGAATATAATATAAAATA [GTGCAC_negctrl_site208]', 'PfAP2-EXP AP2 domain (GST-tagged)', 8.53),
  ('TGAAAAATGTAATGCTCACACATATATATATATATA [CACACA_site5213]', 'PfAP2-EXP AP2 domain (GST-tagged)', 10.2);

---

- Test system: PfAP2-EXP AP2 domain (GST-tagged)
- measurement-description: gcPBM binding intensity (ln(normalized median fluorescence intensity)); higher = stronger DNA binding
The full ranking holds about 25,000 sequences; the median of “ln(normalized median fluorescence intensity)” is about 8.6, and the highest 2% start at about 10. Shown is part of a subset that was picked to be rich in the highest values.
Reported gcPBM binding intensity (ln) by item:
measurement-label: gcPBM binding intensity (ln)

INSERT INTO results (biopolymer_sequence, measurement_label, reported_measurement) VALUES
  ('GCATAACCTTTATATTGTACATATACCTTTATTGTT [XGTACX_site6046]', 'gcPBM binding intensity (ln)', 9.16),
  ('AATAAATAAATATATTGTACATATATATATATATAT [XGTACX_site8627]', 'gcPBM binding intensity (ln)', 10.2),
  ('AATTAAATATTATAAACACACATATAGATTATTTTT [CACACA_site6538]', 'gcPBM binding intensity (ln)', 8.17),
  ('CAAAATAAAAAATTCACACACATATAAATATAAATA [CACACA_site7065]', 'gcPBM binding intensity (ln)', 8.54),
  ('TTATTCTTTAACTAAAATTATATATATATATTATAC [CACACA_negctrl_site1597]', 'gcPBM binding intensity (ln)', 8.38),
  ('TAATATTCAATTATACGTACACATATATATATATAT [XGTACX_site4245]', 'gcPBM binding intensity (ln)', 10.2),
  ('AAAAAAAAAAAAAATTCACACACATATAAAAAATTA [CACACA_site8140]', 'gcPBM binding intensity (ln)', 8.31),
  ('AAATAAAATAAAAACATGCACACTTTATTTTTTTTA [CACACA_site2800]', 'gcPBM binding intensity (ln)', 8.49),
  ('AATACAATATAAAGGTGTACATATATATATATATAT [XGTACX_site68]', 'gcPBM binding intensity (ln)', 10.1),
  ('TAAAAAATATACATTCGTACATATATATTATATATA [XGTACX_site7918]', 'gcPBM binding intensity (ln)', 8.12),
  ('AATATATGTTAAAATGGTACACAATTATTATATATT [XGTACX_site6407]', 'gcPBM binding intensity (ln)', 8.46),
  ('TATATATATATATATGCATGCCATATGATATATATA [TGCATGCA_site109]', 'gcPBM binding intensity (ln)', 10.3),
  ('AATTATATACATAAGTGTACATAATATATAAACATA [XGTACX_site793]', 'gcPBM binding intensity (ln)', 8.31),
  ('AAAAAATGTTAAAAAAGTACTTTCTTTATTTAATAA [XGTACX_site2908]', 'gcPBM binding intensity (ln)', 8.07),
  ('ATATTTAAATGGATCACACATATATATATATATATA [CACACA_site5255]', 'gcPBM binding intensity (ln)', 10.3),
  ('TATATATATATATATTGTACATATTAATATTAGAAA [XGTACX_site8923]', 'gcPBM binding intensity (ln)', 10.1),
  ('TGCTTTTATTTCTTCACACATATGTAAAAAAAAGAA [CACACA_site5906]', 'gcPBM binding intensity (ln)', 8.76),
  ('AAAATCTAGGTATTTATACACACTAAAATAATATAC [CACACA_site623]', 'gcPBM binding intensity (ln)', 8.52),
  ('TTTGCCATATGACACACACACATGTAAACCCCCTTT [CACACA_site6873]', 'gcPBM binding intensity (ln)', 9.41),
  ('TAATATCATTTATGTAGTACTATAACAAGAACTATA [XGTACX_site3618]', 'gcPBM binding intensity (ln)', 8.33),
  ('TATATATAAAGGTGTACACATATATATATATCTGTA [CACACA_site5311]', 'gcPBM binding intensity (ln)', 8.45),
  ('AGAATAAATAAATATTGTACATATAAAATATATATA [XGTACX_site896]', 'gcPBM binding intensity (ln)', 8.39),
  ('AATAATATCATTTAGACACACACTCTTACAATATGT [CACACA_site8832]', 'gcPBM binding intensity (ln)', 8.61),
  ('CAAAATAAAAAATTCACACACATATATATATATATA [CACACA_site2088]', 'gcPBM binding intensity (ln)', 10.2),
  ('ACATATATATAAAGGTGTACACATATATATATATAT [XGTACX_site4779]', 'gcPBM binding intensity (ln)', 10.2);
